assay: folding stability dG unfold from chymotrypsin proteolysis; higher = more stable
# if value of folding stability dG unfold reaches 4 kcal/mol, tag class 1; if it stays below, tag class 0

seq="SAGGSAGGNTITVFMPYSQARELAEELRDEGITVDIQPYPDWMFITVEIKVPKIDPEDNPDNKDSAGGSAGG [r6_392_TrROS]" classification="class 0"
seq="SAGGSAGGSAGSSTSTSSDGVLTTYFPDGTVTSTETKPDPSTGTVLAVSTTTTPLPPDTLSAGGSAGGSAGG [r11_497_JUSTAS]" classification="class 0"
seq="SALEPGEWRKVTAEIPLPGGPLKLEIYEWPSNGHYYADIRNPGNGRPVEIPFPFDTPDDAVDEAKDFIRSAG [r14_65_TrROS]" classification="class 0"

## Input Say whether SAGPPKKVEIPVRYPFDGWEIMIQIDPKDPKIEIHVHNPEHRERAREYARTIARIFQENGIPVEIEPWSAGG [r19_354_TrROS] shows folding stability dG unfold of 4 kcal/mol or more.
## Output class 0

## Input Now the sequence SAGSIQVSESALAPGYSLYTITIPYQSIEDAKKLVEEIVSKRFSVPAEIIETKVDPNTGVVTFTVKVPPSAG [r5_810_JUSTAS]
## Output class 1
